- Tested on: biotinyl-Met-oxazolone
- assay details: self-aminoacylation, catalytic enhancement (BMO) (fold over background); higher = more active; k-Seq, kA / k0A0; sequences stand for … in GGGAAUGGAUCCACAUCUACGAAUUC…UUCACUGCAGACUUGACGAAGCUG
This sample holds only a part of the variants without activity.
The following sequences are listed with their measured self-aminoacylation values.
Number only, please.

Consider the worked cases shown below.
>>> numeric_result("AAGUUUGCUAAUAGUCGGUAG [Fam3.1 aminoacylation ribozyme variant]")
0.878
>>> numeric_result("CCACACUUCAAGUAAUCCGUC [Fam1B.1 aminoacylation ribozyme variant]")
1.1
>>> numeric_result("ACACAUUUCAAGCAAUCGGUC [Fam1B.1 aminoacylation ribozyme variant]")
1.12

Proceed to the following item.
Quick note, self-aminoacylation for AUUACCAUGGUCGUCGAGUGA [Fam2.1 aminoacylation ribozyme variant] landed at 1.3
